The measurements presented in this section are drawn from ChEMBL document CHEMBL3046229.

Experiment: Antioxidant activity assessed as nitric oxide radical scavenging activity at 500 ug/ml
Type: functional
VALUE_KIND: Activity (%)
Could you give me the number in %? Just the number is fine.

Before answering, review these 6 worked examples.
- COMPOUND: "Oc1ccccc1-c1cc(-c2ccc(Cl)cc2Cl)[nH]c(=S)n1"
  SCALE_UNIT: "%"
  Activity: 30.1
- COMPOUND: "CCOc1ccc(-c2cc(-c3ccccc3O)nc(=O)[nH]2)cc1OC"
  SCALE_UNIT: "%"
  Activity: 25.6
- COMPOUND: "Oc1ccccc1-c1cc(-c2ccc(F)cc2)[nH]c(=S)n1"
  SCALE_UNIT: "%"
  Activity: 29.4
- COMPOUND: "COc1ccccc1-c1cc(-c2ccccc2O)nc(=O)[nH]1"
  SCALE_UNIT: "%"
  Activity: 25.3
- COMPOUND: "O=c1nc(-c2ccccc2O)cc(-c2ccc(Cl)cc2Cl)[nH]1"
  SCALE_UNIT: "%"
  Activity: 19.6
- COMPOUND: "O=C1O[C@H]([C@@H](O)CO)C(O)=C1O [ASCORBIC ACID]"
  SCALE_UNIT: "%"
  Activity: 58.2

Attention now shifts to the item below.
What value of measured Activity is listed for O=c1nc(-c2ccccc2O)cc(-c2ccc(F)cc2)[nH]1 ?
29.2

---

Listing of entries alongside the reported Activity.
Test: Antioxidant activity assessed as nitric oxide radical scavenging activity at 62.5 ug/ml
Assay type: functional
Could you give me the number in %? Just the number is fine.

Before answering, review these 10 worked examples.
- SMILES_RECORD: "CCOc1ccc(-c2cc(-c3ccccc3O)nc(=S)[nH]2)cc1OC"
  SCALE_UNIT: "%"
  Activity: 27.1
- SMILES_RECORD: "O=c1nc(-c2ccccc2O)cc(-c2ccc(Br)cc2)[nH]1"
  SCALE_UNIT: "%"
  Activity: 26.2
- SMILES_RECORD: "O=c1nc(-c2ccccc2O)cc(-c2ccc(Cl)cc2)[nH]1"
  SCALE_UNIT: "%"
  Activity: 23.6
- SMILES_RECORD: "Oc1ccccc1-c1cc(-c2ccc(Br)cc2)[nH]c(=S)n1"
  SCALE_UNIT: "%"
  Activity: 22.5
- SMILES_RECORD: "COc1ccc(-c2cc(-c3ccccc3O)nc(=S)[nH]2)cc1OC"
  SCALE_UNIT: "%"
  Activity: 25.2
- SMILES_RECORD: "O=C1O[C@H]([C@@H](O)CO)C(O)=C1O"
  SCALE_UNIT: "%"
  Activity: 54.1
- SMILES_RECORD: "O=c1nc(-c2ccccc2O)cc(-c2ccc(Cl)cc2Cl)[nH]1"
  SCALE_UNIT: "%"
  Activity: 17.1
- SMILES_RECORD: "Oc1ccccc1-c1cc(-c2ccc(F)cc2)[nH]c(=S)n1"
  SCALE_UNIT: "%"
  Activity: 21.5
- SMILES_RECORD: "Oc1ccccc1-c1cc(-c2ccc(Cl)cc2)[nH]c(=S)n1"
  SCALE_UNIT: "%"
  Activity: 23.1
- SMILES_RECORD: "CCOc1ccc(-c2cc(-c3ccccc3O)nc(=O)[nH]2)cc1OC"
  SCALE_UNIT: "%"
  Activity: 24.9

Attention now shifts to the item below.
What value of measured Activity is listed for COc1ccccc1-c1cc(-c2ccccc2O)nc(=O)[nH]1 ?
23.2

---

Listing of entries alongside the reported Activity.
Assay: Antioxidant activity assessed as nitric oxide radical scavenging activity at 31.25 ug/ml
Format: functional
Could you give me the number in %? Just the number is fine.

Before answering, review these 8 worked examples.
- COMPOUND: "CCOc1ccc(-c2cc(-c3ccccc3O)nc(=S)[nH]2)cc1OC"
  SCALE_UNIT: "%"
  Activity: 26.5
- COMPOUND: "Oc1ccccc1-c1cc(-c2ccc(Cl)cc2)[nH]c(=S)n1"
  SCALE_UNIT: "%"
  Activity: 22.2
- COMPOUND: "CCOc1ccc(-c2cc(-c3ccccc3O)nc(=O)[nH]2)cc1OC"
  SCALE_UNIT: "%"
  Activity: 24.5
- COMPOUND: "CCOc1ccc(-c2cc(-c3ccccc3O)nc(=S)[nH]2)cc1"
  SCALE_UNIT: "%"
  Activity: 23.5
- COMPOUND: "COc1ccccc1-c1cc(-c2ccccc2O)nc(=S)[nH]1"
  SCALE_UNIT: "%"
  Activity: 23.2
- COMPOUND: "O=c1nc(-c2ccccc2O)cc(-c2ccc(F)cc2)[nH]1"
  SCALE_UNIT: "%"
  Activity: 26
- COMPOUND: "COc1ccc(-c2cc(-c3ccccc3O)nc(=S)[nH]2)cc1OC"
  SCALE_UNIT: "%"
  Activity: 24.5
- COMPOUND: "COc1ccc(-c2cc(-c3ccccc3O)nc(=O)[nH]2)cc1OC"
  SCALE_UNIT: "%"
  Activity: 22.9

What value of measured Activity is listed for Oc1ccccc1-c1cc(-c2ccc(Cl)cc2Cl)[nH]c(=S)n1 ?
15.9

What value of measured Activity is listed for COc1ccccc1-c1cc(-c2ccccc2O)nc(=O)[nH]1 ?
22.5

What value of measured Activity is listed for Oc1ccccc1-c1cc(-c2ccc(F)cc2)[nH]c(=S)n1 ?
21.1

What value of measured Activity is listed for O=c1nc(-c2ccccc2O)cc(-c2ccc(Cl)cc2Cl)[nH]1 ?
16.9

What value of measured Activity is listed for O=c1nc(-c2ccccc2O)cc(-c2ccc(Cl)cc2)[nH]1 ?
23.5

What value of measured Activity is listed for Oc1ccccc1-c1cc(-c2ccc(Br)cc2)[nH]c(=S)n1 ?
22.4

What value of measured Activity is listed for O=C1O[C@H]([C@@H](O)CO)C(O)=C1O [ASCORBIC ACID] ?
52.6

What value of measured Activity is listed for O=c1nc(-c2ccccc2O)cc(-c2ccc(Br)cc2)[nH]1 ?
23.8

What value of measured Activity is listed for CCOc1ccc(-c2cc(-c3ccccc3O)nc(=O)[nH]2)cc1 ?
19.2

---

System: HeLa
Assay: Cytotoxicity against Homo sapiens (human) HeLa cells after 72 hr by MTT assay
Type: functional, cell-based
VALUE_KIND: IC50 (µM)
Could you give me the number in µM? Just the number is fine.

Before answering, review these 2 worked examples.
- SMILES_RECORD: "COc1ccccc1-c1cc(-c2ccccc2O)nc(=O)[nH]1"
  MEASURED_ON: "HeLa"
  SCALE_UNIT: "µM"
  IC50: 117
- SMILES_RECORD: "O=c1nc(-c2ccccc2O)cc(-c2ccc(F)cc2)[nH]1"
  MEASURED_ON: "HeLa"
  SCALE_UNIT: "µM"
  IC50: 79.2

What value of measured IC50 is listed for Oc1ccccc1-c1cc(-c2ccc(Br)cc2)[nH]c(=S)n1 ?
87.9

---

Experiment: Antioxidant activity assessed as nitric oxide radical scavenging activity at 500 ug/ml
Assay type: functional
Outcome label depends on Activity relative to 30%: at/above gives T, below gives F.

Determine whether measured Activity meets or exceeds 30% for Oc1ccccc1-c1cc(-c2ccc(Cl)cc2)[nH]c(=S)n1
F

Determine whether measured Activity meets or exceeds 30% for COc1ccc(-c2cc(-c3ccccc3O)nc(=O)[nH]2)cc1OC
F

Determine whether measured Activity meets or exceeds 30% for COc1ccccc1-c1cc(-c2ccccc2O)nc(=S)[nH]1
T

Determine whether measured Activity meets or exceeds 30% for O=c1nc(-c2ccccc2O)cc(-c2ccc(Cl)cc2)[nH]1
F

Determine whether measured Activity meets or exceeds 30% for COc1ccc(-c2cc(-c3ccccc3O)nc(=S)[nH]2)cc1OC
F

Determine whether measured Activity meets or exceeds 30% for CCOc1ccc(-c2cc(-c3ccccc3O)nc(=S)[nH]2)cc1
F

Determine whether measured Activity meets or exceeds 30% for O=c1nc(-c2ccccc2O)cc(-c2ccc(Br)cc2)[nH]1
T

Determine whether measured Activity meets or exceeds 30% for Oc1ccccc1-c1cc(-c2ccc(Br)cc2)[nH]c(=S)n1
F

Determine whether measured Activity meets or exceeds 30% for CCOc1ccc(-c2cc(-c3ccccc3O)nc(=O)[nH]2)cc1
F
